procedure summary: Clearance in dog at 0.25 mg/kg, iv by cassette dosing
Format: ADME, organism-based, Canis lupus familiaris
Parameters: dose 0.25 mg/kg, route intravenous
test settings: in vivo
measured parameter: clearance (mL/min/kg)

Field: example entries. Status: answers known.
| smiles record | unit tag | clearance |
| --- | --- | --- |
| CCS(=O)(=O)N1CCC(CNC(=O)c2ccc(Cl)cc2Cl)(CC2CC2)CC1 | mL/min/kg | 0.84 |
| CS(=O)(=O)N1CCC(CNC(=O)c2ccc(Cl)cc2Cl)(c2ccccn2)CC1 | mL/min/kg | 1 |
| CN(C)S(=O)(=O)N1CCC(CNC(=O)c2ccc(Cl)cc2Cl)(c2ccccn2)CC1 | mL/min/kg | 11.8 |

(1) CCCS(=O)(=O)N1CCC(CNC(=O)c2ccc(Cl)cc2Cl)(c2ccccn2)CC1
(2) O=C(NCC1(c2ccccn2)CCN(S(=O)(=O)CC(F)(F)F)CC1)c1ccc(Cl)cc1Cl
Q: // pick min by clearance: 1 , 2 Your answer should be the label attached to the chosen record.
Result: 2

* * *

Reported IC50 by item:
Target sequence: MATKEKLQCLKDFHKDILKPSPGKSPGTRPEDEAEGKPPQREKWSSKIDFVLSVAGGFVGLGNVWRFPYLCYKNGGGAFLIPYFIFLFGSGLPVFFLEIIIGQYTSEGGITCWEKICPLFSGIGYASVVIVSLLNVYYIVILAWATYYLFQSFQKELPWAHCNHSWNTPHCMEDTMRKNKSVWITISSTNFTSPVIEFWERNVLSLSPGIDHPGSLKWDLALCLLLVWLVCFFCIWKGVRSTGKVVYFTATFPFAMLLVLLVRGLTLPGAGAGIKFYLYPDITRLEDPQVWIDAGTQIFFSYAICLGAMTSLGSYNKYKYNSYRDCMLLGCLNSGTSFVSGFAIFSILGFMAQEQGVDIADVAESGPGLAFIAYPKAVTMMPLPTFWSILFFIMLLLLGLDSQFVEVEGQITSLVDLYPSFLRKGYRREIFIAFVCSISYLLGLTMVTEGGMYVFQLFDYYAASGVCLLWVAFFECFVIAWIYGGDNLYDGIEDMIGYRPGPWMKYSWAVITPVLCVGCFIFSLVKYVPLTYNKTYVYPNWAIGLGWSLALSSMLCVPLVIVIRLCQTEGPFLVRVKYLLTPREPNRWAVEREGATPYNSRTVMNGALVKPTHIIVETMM

| smiles record | IC50 |
| --- | --- |
| CS(=O)(=O)N1CCC(CNC(=O)c2ccc(Cl)cc2Cl)(c2ccccn2)CC1 | > 30 µM |

Please look at the following compound next.
Lab book: IC50 of `CCCS(=O)(=O)N1CCC(CNC(=O)c2ccc(Cl)cc2Cl)(c2ccccn2)CC1` noted as > 30 µM

* * *

procedure summary: Clearance in dog at 0.25 mg/kg, iv by cassette dosing
Type: ADME, organism-based, Canis lupus familiaris
Set-up: dose 0.25 mg/kg, route intravenous
test settings: in vivo
measured parameter: clearance (mL/min/kg)

| smiles record | clearance, mL/min/kg |
| --- | --- |
| O=C(NCC1(c2ccccn2)CCN(S(=O)(=O)C2CC2)CC1)c1ccc(Cl)cc1Cl | 1.7 |

(P) CCS(=O)(=O)N1CCC(CNC(=O)c2ccc(Cl)cc2Cl)(c2ccccn2)CC1
(Q) CCS(=O)(=O)N1CCC(c2ccccn2)([C@H](C)NC(=O)c2ccc(Cl)cc2Cl)CC1
Q: Field: entry with larger clearance (options P / Q ). Choose, then provide that item's label.
Result: Q

* * *

Test system: MDR1 (human)
procedure summary: Passive permeability from apical to basolateral side of pig LLC-PK1 cells expressing human MDR1
Assay type: ADME, cell-based, Sus scrofa
test settings: read-out: permeability
measured parameter: Papp A→B (×10⁻⁶ cm/s)
Form entry: value (×10⁻⁶ cm/s) — number only.

Just so you know, measured Papp A→B for `CCS(=O)(=O)N1CCC(c2ccccn2)([C@H](C)NC(=O)c2ccc(Cl)cc2Cl)CC1` came out at 37

* * *

procedure summary: Half life in dog at 0.25 mg/kg, iv by cassette dosing
Type: ADME, organism-based, Canis lupus familiaris
Parameters: dose 0.25 mg/kg, route intravenous
test settings: in vivo
measured parameter: half-life (h)

Example entries begin here.
| smiles record | unit tag | half-life |
| --- | --- | --- |
| CCS(=O)(=O)N1CCC(CNC(=O)c2ccc(Cl)cc2Cl)(c2ccccn2)CC1 | h | 8 |
| O=C(NCC1(c2ccccn2)CCN(S(=O)(=O)C2CC2)CC1)c1ccc(Cl)cc1Cl | h | 7.6 |
| CCCS(=O)(=O)N1CCC(CNC(=O)c2ccc(Cl)cc2Cl)(c2ccccn2)CC1 | h | 2.3 |
| CN(C)S(=O)(=O)N1CCC(CNC(=O)c2ccc(Cl)cc2Cl)(c2ccccn2)CC1 | h | 1.9 |

(1) O=C(NCC1(c2ccccn2)CCN(S(=O)(=O)CC(F)(F)F)CC1)c1ccc(Cl)cc1Cl
(2) CS(=O)(=O)N1CCC(CNC(=O)c2ccc(Cl)cc2Cl)(c2ccccn2)CC1
Q: Hi! Which is lower in terms of half-life, the first one 1 or the second one 2 ? Give the chosen item's label as your response.
Result: 1

* * *

Target chain: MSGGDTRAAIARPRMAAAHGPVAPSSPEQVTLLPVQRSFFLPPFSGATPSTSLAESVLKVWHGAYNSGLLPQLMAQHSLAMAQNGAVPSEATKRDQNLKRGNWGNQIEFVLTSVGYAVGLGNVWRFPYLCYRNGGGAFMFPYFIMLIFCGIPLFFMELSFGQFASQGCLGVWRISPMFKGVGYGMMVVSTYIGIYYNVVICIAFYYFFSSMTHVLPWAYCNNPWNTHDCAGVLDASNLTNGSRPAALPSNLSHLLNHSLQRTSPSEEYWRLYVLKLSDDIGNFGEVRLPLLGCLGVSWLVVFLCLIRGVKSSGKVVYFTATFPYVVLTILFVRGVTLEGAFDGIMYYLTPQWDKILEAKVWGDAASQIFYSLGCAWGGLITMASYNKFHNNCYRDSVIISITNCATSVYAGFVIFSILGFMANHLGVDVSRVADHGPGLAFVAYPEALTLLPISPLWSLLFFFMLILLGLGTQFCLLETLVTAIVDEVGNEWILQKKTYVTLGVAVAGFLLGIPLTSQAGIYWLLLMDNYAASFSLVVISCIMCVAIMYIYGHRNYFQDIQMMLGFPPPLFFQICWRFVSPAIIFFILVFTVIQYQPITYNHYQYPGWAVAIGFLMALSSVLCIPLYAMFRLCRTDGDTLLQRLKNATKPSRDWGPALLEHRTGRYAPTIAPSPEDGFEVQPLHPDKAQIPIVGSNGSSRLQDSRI
pIC50: −log10 of the molar value.
measured parameter: pIC50

Known results for compounds:
| compound | pIC50 |
| --- | --- |
| CCCCS(=O)(=O)N1CCC(CNC(=O)c2ccc(Cl)cc2Cl)(c2ccccn2)CC1 | 6.92 |
| CC(C)S(=O)(=O)N1CCC(CNC(=O)c2ccc(Cl)cc2Cl)(c2ccccn2)CC1 | 6.66 |
| CCCS(=O)(=O)N1CCC(CNC(=O)c2ccc(Cl)cc2Cl)(CC2CCCCO2)CC1 (stereo not given) | 8.54 |

(P) CC(O)CS(=O)(=O)N1CCC(CNC(=O)c2ccc(Cl)cc2Cl)(c2ccccn2)CC1 (stereo not given)
(Q) CCCS(=O)(=O)N1CCC(CNC(=O)c2ccc(Cl)cc2Cl)(N2CCC2)CC1
Q: Between P and Q , which one shows the larger pIC50 value? Bench note: the answer is the label of the chosen record.
Result: Q

* * *

procedure summary: Half life in dog at 0.5 mg/kg, iv and 1 mg/kg, po
Format: ADME, organism-based, Canis lupus familiaris
test settings: in vivo
measured parameter: half-life (h)

(a) CCS(=O)(=O)N1CCC(c2ccccn2)([C@H](C)NC(=O)c2ccc(Cl)cc2Cl)CC1
(b) CCS(=O)(=O)N1CCC(CNC(=O)c2ccc(Cl)cc2Cl)(CC2CC2)CC1
Q: Returns the identifier with the smallest measured half-life among a and b . Answer format: the label of the selected item.
Result: a

* * *

procedure summary: Half life in dog at 0.25 mg/kg, iv by cassette dosing
Assay type: ADME, organism-based, Canis lupus familiaris
Set-up: dose 0.25 mg/kg, route intravenous
test settings: in vivo
The molecules listed here are annotated with their half-life.

| molecule | measured parameter | value measured |
| --- | --- | --- |
| CCCS(=O)(=O)N1CCC(CNC(=O)c2ccc(Cl)cc2Cl)(N2CCC2)CC1 | half-life | < 2 h |
| CCCS(=O)(=O)N1CCC(CNC(=O)c2ccc(Cl)cc2Cl)(C2CCCCC2O)CC1 (stereo unspecified) | half-life | < 2 h |
| CCCS(=O)(=O)N1CCC(CNC(=O)c2ccc(Cl)cc2Cl)(CC2CCCCO2)CC1 (stereo unspecified) | half-life | < 2 h |
| CCCS(=O)(=O)N1CCC(CCOC)(CNC(=O)c2ccc(Cl)cc2Cl)CC1 | half-life | < 2 h |
| CCCS(=O)(=O)N1CCC(CNC(=O)c2ccc(Cl)cc2Cl)(C2CCCCC2OC(C)=O)CC1 (stereo unspecified) | half-life | < 2 h |

Now look at this entry.
# molecule `CCCS(=O)(=O)N1CCC(CNC(=O)c2ccc(Cl)cc2Cl)(CC2CC2)CC1` ; its half-life = < 2 h

Origin of the recorded values: ChEMBL document CHEMBL1152879
